I'd be grateful if you could share measured pEC50 for these entries.
biological target: PPARδ (Homo sapiens); construct: fused to amino acids 147-441 of PPARδ downstream of CMV promoter; expressed in transfected cells; host or cells: HEK293 cells, transiently transfected with pFACMV-PPARδ using Fugene; experiment: Transactivation assay (PPARδ GAL4 assay) in transiently transfected HEK293 cells; type: cell-based; settings: luciferase reporter, Table 1
Sequence (Q03181 147-441): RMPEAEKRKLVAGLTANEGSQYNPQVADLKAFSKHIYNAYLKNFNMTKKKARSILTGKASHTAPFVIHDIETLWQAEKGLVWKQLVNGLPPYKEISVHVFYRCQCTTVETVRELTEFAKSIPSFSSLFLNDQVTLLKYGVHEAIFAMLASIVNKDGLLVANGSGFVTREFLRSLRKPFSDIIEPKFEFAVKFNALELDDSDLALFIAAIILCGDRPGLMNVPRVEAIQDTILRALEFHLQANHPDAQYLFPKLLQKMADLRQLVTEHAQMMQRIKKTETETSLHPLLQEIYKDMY
pEC50: −log10 of the molar value.

Challenge: Please give the measured pEC50 for this molecule: CCc1cc(C(=O)c2ccc(C)c(C)c2)c(NC(=O)CC2(CC(=O)O)CCCC2)s1 [Example 53]
Response given: 4.52 to 6.00

Challenge: Please give the measured pEC50 for this molecule: CCc1cc(C(=O)c2ccc(OC(F)(F)F)cc2)c(NC(=O)c2ccc(SCC(=O)O)cc2)s1 [Example 103]
Response given: 6.00 to 7.00

Challenge: Please give the measured pEC50 for this molecule: CCc1cc(C(=O)c2ccc(OC(F)(F)F)cc2)c(NC(=O)CC2(CC(=O)O)CCCC2)s1 [Example 4]
Response given: 6.00 to 7.00

Challenge: Please give the measured pEC50 for this molecule: CCc1cc(C(=O)c2ccc(OC)nc2)c(NC(=O)CSCC(=O)O)s1 [Example 55]
Response given: 4.52 to 6.00

Challenge: Please give the measured pEC50 for this molecule: CCc1cc(C(=O)c2ccc(C#N)cc2)c(NC(=O)CSCC(=O)O)s1 [Example 35]
Response given: 4.52 to 6.00

Challenge: Please give the measured pEC50 for this molecule: CCc1cc(C(=O)c2ccc(OC(F)(F)F)cc2)c(NC(=O)CNCC(=O)O)s1 [Example 81]
Response given: 6.00 to 7.00

Challenge: Please give the measured pEC50 for this molecule: CCCc1cc(C(=O)c2ccc(OC)cc2)c(NC(=O)CSCC(=O)O)s1 [Example 63]
Response given: 4.52 to 6.00

Challenge: Please give the measured pEC50 for this molecule: CCc1cc(C(=O)c2ccc(-c3ccc(OC(F)(F)F)cc3)cc2)c(NC(=O)CSCC(=O)O)s1 [Example 39]
Response given: > 7.00
